Biological target: erythrocytes infected with P. falciparum field isolate 11019
Experiment: flow cytometry, staining of IEs
// values below are reported % parasite recognition

{"Binder": "MGD30 (antibody) VH: QVQLQESGPGLVKPSETLSLSCAVTGGSITSSKWWTWVRQGPDKGLEWIGKIYHNGTTNYNPSLKSRVAMSVDKSRNQFSLRLTSVTAADTALYYCATASPFKSHHRTTEKLPRPSISAEPGTVIPLGSRVTFVCRGPVGVQTFRLERETSFTYNDTEDVSQVSPSESEARFRIDSVSEGYAGPYRCVYYKAPKWSEQSDYLDLLVKGEDVTWALTQPQLDPRACPQGDLRMSTDIYCMDVWGKGTTVTVSS VL: AIRLTQSPSSLSASIGDRVTITCRASQDISTFLAWYQQESGKAPRLLIFAASTLQTGVPSRFSGSGSGTDFTLTISGLQSEDFATYYCQQYYCFPPDFGQGTRLDIK", "Readout unit": "%", "% parasite recognition": 4.4}
{"Binder": "MGC37 (antibody) VH: EVQLVESGGDLVQPGGSLRLSCAASGFTFRNYWMSWVRQTPGKGLEWVANIRQDGSEKYYVDSVKGRFTISRDNAKNLLYLQMNSLRAEDTAVYYCVRDKFCSDENHMHVADDLPRPSISPEPGTVIPLGSHVTFVCRGPVGVQTFRLEKDRRSTYNDTEDVSQPSPSESEARFRIDSVTEGNAGLYRCVYYKPPKWSDQSDFLELLVKGEDVTWALFPHCGADGEDSDYYMDVWGKGTTVTVSS VL: DIQLTQSPSTLSASVGDRVTISCRASQRLSRSLAWYQQRPRKAPNLLIYKASPLEIGGPSRFTGSGSGTEFTLTISSLQPDDSATYYCQQYSNYSYSFGQGTKLEIR", "Readout unit": "%", "% parasite recognition": 51.8}
{"Binder": "MGD55 (antibody) VH: QVQLQESGPGLVKPSGTLSLTCTVSGGSISAYKWWSWVRQAPGKGLEWIGQVYHNGNTNYNPSLKGRVAMSVDKSKNRFSLRLASVTAADTAVYYCATISPLRPQSDTDDLPRPSISAEPGTVIPLGSHVTFVCRGPIGVQTFRLERESRSLYSDTEDVSQVSPFASEARFRIDSVSEGNAGPYRCIYYKDRKWSDQSDYLELLVKGEDVTWALPQSQLAPRACPQEELNISTDIFSMNVWGKGTTVTVSS VL: AIRMTQSPASLSASIGDRVTITCRTSQDVGNYLDWYQQKPGKAPKLLIHGASTLQTGVPSRFSGSGAGTDFTLNITCLQSGDFAMYYCQQYYSSPPGFGQGTRLEIK", "Readout unit": "%", "% parasite recognition": 33.1}
{"Binder": "MGD41 (antibody) VH: EVQLVESGPGLVKPSGTLSVTCTISGGSINTDKWWTWVRQPPGKGLEWVGEVLHTGSTNYNPSLRGRVTISVDKSKNQFSLRLSSVTAADTAVYYCATISTLRPQRDIEDLPRPSLSAEPGTVVPLGSHVTFVCRGPVGVQTFRLERESRSTYNDTEDVSQPSPFESEARFRIDSVSEGNAGPYRCIYYKSPKWSDQSDYVELLVKGEDVTWAPPQSQLAPRACPQGELRTSTDIFSMNVWGKGTTVTVSS VL: AIRMTQSPSSLSAFTGDRVTISCRASQDIGNYLDWYHQKPGRAPKLLIHGASTLLTGVPSRFSGSGSGTDFTLNITCLQSGDFGIYYCLQYYSSPPAFGPGTRLEIK", "Readout unit": "%", "% parasite recognition": 6.8}

Source listed as patent US20180186897A1.
